Molecular target: FAAH (Mus musculus, UniProt O08914)
Sequence (O08914 whole entry): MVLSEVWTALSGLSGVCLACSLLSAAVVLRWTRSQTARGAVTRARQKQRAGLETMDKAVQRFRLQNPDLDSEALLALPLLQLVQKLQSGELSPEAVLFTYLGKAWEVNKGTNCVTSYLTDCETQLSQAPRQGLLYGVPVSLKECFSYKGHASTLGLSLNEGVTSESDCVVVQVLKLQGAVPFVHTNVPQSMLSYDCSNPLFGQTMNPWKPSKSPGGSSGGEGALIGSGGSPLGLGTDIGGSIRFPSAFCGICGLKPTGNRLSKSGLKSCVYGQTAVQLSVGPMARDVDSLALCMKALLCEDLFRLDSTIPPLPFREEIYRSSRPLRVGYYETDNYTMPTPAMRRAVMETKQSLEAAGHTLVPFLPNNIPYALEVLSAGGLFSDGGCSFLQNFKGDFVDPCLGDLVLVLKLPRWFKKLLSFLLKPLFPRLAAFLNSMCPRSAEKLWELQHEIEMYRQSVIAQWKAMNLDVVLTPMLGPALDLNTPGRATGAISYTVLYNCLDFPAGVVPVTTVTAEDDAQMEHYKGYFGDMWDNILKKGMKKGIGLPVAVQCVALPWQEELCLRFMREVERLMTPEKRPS
Experiment: In vitro competitive activity-based protein profiling (FP-Rh), mouse FAAH
Format: biochemical
Parameters: from tissue; host or cells: mouse brain membrane fraction
Conditions: Table 1, mouse proteome, 30 min preincubation at 37° C.
Procedure: In Vitro Competitive Activity-Based Protein Profiling. Proteomes (mouse brain membrane fraction or cell lysates) (50 μL, 1.0 mg/ml total protein concentration) were preincubated with varying concentrations of inhibitors at 37° C. After 30 min, FP-Rh (1.0 μL, 50 μM in DMSO) was added and the mixture was incubated for another 30 min at 37° C. Reactions were quenched with SDS loading buffer (50 μL—4×) and run on SDS-PAGE.
attribute_measured: IC50

Any idea what IC50 was measured for "O=C(ON1C(=O)CCC1=O)N1CC[C@@H](OCc2ccccc2)C1" ? > 10000 nM

Any idea what IC50 was measured for CC1CCCCN1C(=O)ON1C(=O)CCC1=O (stereo not drawn) ? > 10000 nM

Any idea what IC50 was measured for CN(C)C(=O)ON1C(=O)CC(c2ccccc2)C1=O (stereo not drawn) ? > 10000 nM

Any idea what IC50 was measured for "CN1CC(=O)N(OC(=O)N2CCC(CCc3ccc(Cl)cc3)CC2)C1=O" ? 100 to 1000 nM

Any idea what IC50 was measured for O=C(ON1C(=O)CC(c2ccccc2)C1=O)N1CCCCC1 (stereo not drawn) ? > 10000 nM

Any idea what IC50 was measured for COc1ccc(N2CCN(C(=O)ON3C(=O)C4CCCCC4C3=O)CC2)cc1 (stereo not drawn) ? > 10000 nM

====

Target: ABHD6 (Mus musculus)
Sequence (Q8R2Y0 1-336): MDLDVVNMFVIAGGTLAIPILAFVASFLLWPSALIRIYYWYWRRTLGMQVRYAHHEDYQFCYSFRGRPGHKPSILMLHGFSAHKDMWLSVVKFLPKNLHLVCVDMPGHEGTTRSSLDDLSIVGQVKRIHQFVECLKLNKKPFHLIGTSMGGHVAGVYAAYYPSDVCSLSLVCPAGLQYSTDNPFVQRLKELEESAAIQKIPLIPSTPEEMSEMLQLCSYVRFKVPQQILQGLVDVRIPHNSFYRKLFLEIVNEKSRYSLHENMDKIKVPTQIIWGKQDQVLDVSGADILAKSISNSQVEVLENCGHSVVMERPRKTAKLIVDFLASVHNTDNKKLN
Assay: In vitro competitive activity-based protein profiling (FP-Rh), mouse ABHD6
Type: biochemical
Design: from tissue; host or cells: mouse brain membrane fraction
Conditions: Table 1, mouse proteome, 30 min preincubation at 37° C.
attribute_measured: IC50

Any idea what IC50 was measured for "CCN(Cc1ccccc1)C(=O)ON1C(=O)CCC1=O" ? > 10000 nM

Any idea what IC50 was measured for "O=C(ON1C(=O)CNC1=O)N1CCCCC1" ? > 10000 nM

Any idea what IC50 was measured for "O=C(CN1CCN(C(=O)ON2C(=O)CCC2=O)CC1)Nc1cc(C(F)(F)F)ccc1Cl" ? 1000 to 10000 nM

Any idea what IC50 was measured for "CC(C)(C)OC(=O)N1CCN(C(=O)ON2C(=O)CCC2=O)CC1" ? > 10000 nM

Any idea what IC50 was measured for O=C(C1CCCCN1C(=O)ON1C(=O)CCC1=O)N1CCOCC1 (centres unmarked) ? > 10000 nM

Any idea what IC50 was measured for "O=C(ON1C(=O)CCC1=O)N1CCN(C(c2ccc(Cl)cc2)c2ccc(Cl)cc2)CC1" ? 100 to 1000 nM

Any idea what IC50 was measured for O=C1CCC(=O)N1OC(=O)N1CCCCC1CCc1ccccc1 (centres unmarked) ? > 10000 nM

Any idea what IC50 was measured for "COc1ccc(N2CCN(C(=O)ON3C(=O)CCC3=O)CC2)cc1" ? 1000 to 10000 nM
